Just for reference, the supplement of paper PMC10126150 is where these values come from.

Test system: ATP;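 note: ATP exposure 15 min at 22 °C before imaging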
Experiment: switch fluorescence ratio, 500 uM ATP over buffer (Cy3 cluster intensity, sum of 5 cycles each) (fold (ratio)); higher = stronger signal-on switching upon ATP binding; sequences stand for … in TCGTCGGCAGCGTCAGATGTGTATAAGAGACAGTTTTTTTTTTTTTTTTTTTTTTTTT…TC
Conditions: aptamer strand: ATP DNA aptamer (quencher-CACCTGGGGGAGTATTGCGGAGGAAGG + anchor), 100 nM annealed; ATP concentration: 500 uM
Answer 0.0 if switch fluorescence ratio is under 1, and 1.0 if it is 1 or more.

INSERT INTO assay_data (sequence_data, category_label) VALUES
  ('CCAACCTGAT', 1.0);

Item `CTGTAATATT` with switch fluorescence ratio of 1 or above?
1.0

Item `TGTGTGCCGG` with switch fluorescence ratio of 1 or above?
0.0

Item `TGCAGGGGGT` with switch fluorescence ratio of 1 or above?
1.0
